Target: EGFR L858R (NCI-H3255) (Homo sapiens, UniProt P00533, L858R)
Construct: detects endogenous levels of phospho-EGF Receptor (Tyr1068) protein; host or cells: NCI-H3255
Sequence (P00533 25-1210 L858R): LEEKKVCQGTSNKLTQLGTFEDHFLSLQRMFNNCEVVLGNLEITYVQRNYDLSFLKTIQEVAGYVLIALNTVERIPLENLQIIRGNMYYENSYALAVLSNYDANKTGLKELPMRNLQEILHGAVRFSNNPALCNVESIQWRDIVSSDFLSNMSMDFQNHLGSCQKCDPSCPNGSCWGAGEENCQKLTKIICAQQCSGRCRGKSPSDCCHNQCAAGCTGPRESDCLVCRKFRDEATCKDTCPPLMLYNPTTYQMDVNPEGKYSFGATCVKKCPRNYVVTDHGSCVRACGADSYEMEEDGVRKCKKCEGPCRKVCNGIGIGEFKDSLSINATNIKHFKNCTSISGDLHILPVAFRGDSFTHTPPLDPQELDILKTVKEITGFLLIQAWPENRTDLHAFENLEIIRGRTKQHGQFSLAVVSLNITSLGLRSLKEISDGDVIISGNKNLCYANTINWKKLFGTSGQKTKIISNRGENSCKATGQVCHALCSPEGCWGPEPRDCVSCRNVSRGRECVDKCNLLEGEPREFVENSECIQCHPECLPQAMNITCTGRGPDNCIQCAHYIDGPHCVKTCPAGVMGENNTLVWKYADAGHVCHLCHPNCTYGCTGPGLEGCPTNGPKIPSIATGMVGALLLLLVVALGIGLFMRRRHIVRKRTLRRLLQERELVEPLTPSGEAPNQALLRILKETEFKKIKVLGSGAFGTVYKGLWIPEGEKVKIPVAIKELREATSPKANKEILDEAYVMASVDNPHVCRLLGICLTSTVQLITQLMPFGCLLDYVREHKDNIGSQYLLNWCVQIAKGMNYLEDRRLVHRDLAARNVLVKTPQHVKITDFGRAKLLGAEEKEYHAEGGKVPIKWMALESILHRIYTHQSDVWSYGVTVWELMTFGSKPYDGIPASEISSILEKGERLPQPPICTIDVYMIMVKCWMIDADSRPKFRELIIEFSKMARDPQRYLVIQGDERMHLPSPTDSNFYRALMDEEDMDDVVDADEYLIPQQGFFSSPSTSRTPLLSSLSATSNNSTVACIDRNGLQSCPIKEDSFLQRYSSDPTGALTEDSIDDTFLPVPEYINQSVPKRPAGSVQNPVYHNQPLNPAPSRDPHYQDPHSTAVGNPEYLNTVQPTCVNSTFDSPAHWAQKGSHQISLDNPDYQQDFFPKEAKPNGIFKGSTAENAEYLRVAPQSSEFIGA
Assay: pEGFR Y1068 ELISA assay, NCI-H3255 cells
Format: cell-based
test-readout: IC50 (nM)

INSERT INTO results (compound, test_readout, result_unit, reading) VALUES
  ('C=CC(=O)N[C@H]1CCN(c2nc(Nc3cnn(C4CCN(C)CC4)c3)c3ncn(C(C)C)c3n2)C1', 'IC50', 'nM', 9),
  ('C=CC(=O)N[C@@H]1CN(c2nc(Nc3cn(C4CCN(C)C4)nc3C)c3ncn(C)c3n2)C[C@H]1F (some centres unmarked)', 'IC50', 'nM', 15),
  ('C=CC(=O)N(C)[C@H]1C[C@H](Oc2nc(Nc3ccc(N4CCN(C)CC4)cc3)c3ncn(C(C)C)c3n2)C1', 'IC50', 'nM', 35);

(A) C=CC(=O)N[C@@H]1CN(c2nc(Nc3cnn([C@@H]4CCN(C)C4)c3C)c3ncn(C(C)C)c3n2)C[C@H]1F
(B) C=CC(=O)N[C@@H]1CN(c2nc(Nc3cn(C4CCN(C)C4)nc3OC)c3ncn(C)c3n2)C[C@H]1F (some centres unmarked)
Prompt: API: POST /compare with A and B ; response names the item with higher IC50. Return value: the label identifying the chosen record.
Completion: A
